Experiment: Stability in Mouse Plasma
Format: in vitro ADME
Conditions: pooled mouse plasma, 37° C., peptides 100 DM, 180 min
Non-standard residues stand in square brackets, D forms with d. Residues, ends and D or L forms follow the SMILES beside them.
MEASURE: remaining at 3 h, 100 DM (%)
// units = %; emit number, no label

Entry under review: CC[C@H](C)[C@H](NC(=O)[C@@H](C)NC(=O)[C@H](CO)NC(=O)CNC(=O)[C@@H]1CCCN1C(=O)[C@H](CC(C)C)NC(=O)[C@@H](N)CCCNC(=N)N)C(=O)N[C@@H](CC(C)C)C(=O)N[C@H](C(=O)N[C@@H](CC(N)=O)C(=O)N1CCC[C@H]1C(=O)N[C@H](C(=O)N[C@@H](CC(C)C)C(=O)NCC(=O)N[C@@H](Cc1c[nH]c2ccccc12)C(=O)N[C@H](C(=O)N[C@@H](Cc1c[nH]c2ccccc12)C(=O)N[C@H](C(=O)O)C(C)C)C(C)C)C(C)C)[C@@H](C)O [compound 9] (H-RLPGS[dA]ILTNPVLGWVWV-OH) . Reported remaining at 3 h, 100 DM?
46.6
